Test system: male dd-mice
ASSAY SUMMARY: Acute toxicity
EXPERIMENTAL CONDITIONS: mouse, in vivo, ip, 10080 min
Where a name gives a salt, the structure may show the parent alone.
QUANTITY KIND: MLD i.p.

Here O=C(c1ccc(O)nc1)N1CCN([C@H]2CO[C@H]3[C@@H]2OC[C@@H]3O[N+](=O)[O-])CC1 [Compound 114, hydrochloride] was tested on male dd-mice, and its MLD i.p. came to > 100 mg/kg

Here O=[N+]([O-])O[C@H]1CO[C@H]2[C@@H]1OC[C@@H]2N1CCN(CCc2nc3ccccc3[nH]2)CC1 [Compound 57, hydrochloride] was tested on male dd-mice, and its MLD i.p. came to > 100 mg/kg

Here O=[N+]([O-])O[C@H]1CO[C@H]2[C@@H]1OC[C@@H]2N1CCN(CCCn2ccnc2)CC1 [Compound 21, hydrochloride] was tested on male dd-mice, and its MLD i.p. came to > 100 mg/kg

Here O=C(c1cccs1)N1CCN([C@H]2CO[C@H]3[C@@H]2OC[C@@H]3O[N+](=O)[O-])CC1 [Compound 111, hydrochloride] was tested on male dd-mice, and its MLD i.p. came to > 100 mg/kg

Here O=C(c1cccnc1)N1CC[N+]([O-])([C@H]2CO[C@H]3[C@@H]2OC[C@@H]3O[N+](=O)[O-])CC1 [Compound 113, hydrochloride] was tested on male dd-mice, and its MLD i.p. came to > 100 mg/kg

Here O[C@H]1CO[C@H]2[C@@H]1OC[C@@H]2N1CCN(CCCOc2ccccc2)CC1 [Compound 102, hydrochloride] was tested on male dd-mice, and its MLD i.p. came to > 100 mg/kg
